# System: Candida albicans
# assay.name: Antifungal activity against Candida albicans MTCC 227 at 100 ug/ml by agar cup diffusion method
# Type: functional
# applied.conditions: read-out: IZ
measure.name: zone of inhibition at 100 µg/mL (mm)

compound: N#Cc1c(C(F)(F)F)cc(-c2ccccc2)c2c3n(nc12)[C@H]1OCCC[C@H]1CN3
measure.name: zone of inhibition at 100 µg/mL
measured.number: 8

compound: CC1(c2ccccc2)CCNc2c3c(C(F)(F)F)cc(-c4ccccc4)c(C#N)c3nn21 (stereo not given)
measure.name: zone of inhibition at 100 µg/mL
measured.number: 8

compound: C=CC1(C)CCNc2c3c(C(F)(F)F)cc(-c4ccccc4)c(C#N)c3nn21 (stereo not given)
measure.name: zone of inhibition at 100 µg/mL
measured.number: 7

compound: N#Cc1c(-c2ccccc2)cc(C(F)(F)F)c2c3n(nc12)[C@@]1(c2ccccc2)CCCC[C@H]1CN3
measure.name: zone of inhibition at 100 µg/mL
measured.number: 9

compound: N#Cc1c(-c2ccccc2)cc(C(F)(F)F)c2c3n(nc12)[C@H]1C=CCC[C@H]1CN3
measure.name: zone of inhibition at 100 µg/mL
measured.number: 7

* * *

# Test system: Bacillus subtilis
# assay.name: Antibacterial activity against Bacillus subtilis MTCC 441 by broth dilution method
# Format: functional
measure.name: MIC (µg/mL)

compound: N#Cc1c(-c2ccccc2)cc(C(F)(F)F)c2c3n(nc12)C(c1ccccc1)CCN3 (stereo not given)
value.units: µg/mL
measured.number: 50
//
compound: N#Cc1c(-c2ccccc2)cc(C(F)(F)F)c2c3n(nc12)[C@H]1C=CC[C@H]1CN3
value.units: µg/mL
measured.number: 150
//
compound: N#Cc1c(-c2ccccc2)cc(C(F)(F)F)c2c3n(nc12)[C@@]1(c2ccccc2)CCCC[C@H]1CN3
value.units: µg/mL
measured.number: 75
//
compound: N#Cc1c(-c2ccccc2)cc(C(F)(F)F)c2c3n(nc12)[C@H]1c2ccccc2C[C@H]1CN3
value.units: µg/mL
measured.number: 75
//
compound: N#Cc1c(C(F)(F)F)cc(-c2ccccc2)c2c3n(nc12)[C@H]1OCCC[C@H]1CN3
value.units: µg/mL
measured.number: 150
//
compound: N#Cc1c(-c2ccccc2)cc(C(F)(F)F)c2c3n(nc12)[C@H]1OCCC[C@H]1CN3
value.units: µg/mL
measured.number: 150
//
compound: CC1(c2ccccc2)CCNc2c3c(C(F)(F)F)cc(-c4ccccc4)c(C#N)c3nn21 (stereo not given)
value.units: µg/mL
measured.number: 75
//
compound: C=CC1(C)CCNc2c3c(-c4ccccc4)cc(C(F)(F)F)c(C#N)c3nn21 (stereo not given)
value.units: µg/mL
measured.number: 75
//
compound: N#Cc1c(-c2ccccc2)cc(C(F)(F)F)c2c3n(nc12)[C@H]1C=CCC[C@H]1CN3
value.units: µg/mL
measured.number: 150
//
compound: C=CC1(C)CCNc2c3c(C(F)(F)F)cc(-c4ccccc4)c(C#N)c3nn21 (stereo not given)
value.units: µg/mL
measured.number: 150

* * *

# System: Escherichia coli
# assay.name: Antibacterial activity against Escherichia coli MTCC 443 by broth dilution method
# Assay type: functional

compound: N#Cc1c(-c2ccccc2)cc(C(F)(F)F)c2c3n(nc12)[C@H]1c2ccccc2C[C@H]1CN3
value.units: µg/mL
MIC: 75
//
compound: N#Cc1c(-c2ccccc2)cc(C(F)(F)F)c2c3n(nc12)[C@H]1C=CCC[C@H]1CN3
value.units: µg/mL
MIC: 37.5
//
compound: N#Cc1c(-c2ccccc2)cc(C(F)(F)F)c2c3n(nc12)[C@H]1OCCC[C@H]1CN3
value.units: µg/mL
MIC: 75
//
compound: CC1(c2ccccc2)CCNc2c3c(C(F)(F)F)cc(-c4ccccc4)c(C#N)c3nn21 (stereo not given)
value.units: µg/mL
MIC: 37.5
//
compound: N#Cc1c(C(F)(F)F)cc(-c2ccccc2)c2c3n(nc12)[C@H]1OCCC[C@H]1CN3
value.units: µg/mL
MIC: 75
//
compound: C=CC1(C)CCNc2c3c(C(F)(F)F)cc(-c4ccccc4)c(C#N)c3nn21 (stereo not given)
value.units: µg/mL
MIC: 150
//
compound: N#Cc1c(-c2ccccc2)cc(C(F)(F)F)c2c3n(nc12)[C@@]1(c2ccccc2)CCCC[C@H]1CN3
value.units: µg/mL
MIC: 37.5
//
compound: N#Cc1c(-c2ccccc2)cc(C(F)(F)F)c2c3n(nc12)C(c1ccccc1)CCN3 (stereo not given)
value.units: µg/mL
MIC: 25
//
compound: N#Cc1c(-c2ccccc2)cc(C(F)(F)F)c2c3n(nc12)[C@H]1C=CC[C@H]1CN3
value.units: µg/mL
MIC: 37.5
//
compound: C=CC1(C)CCNc2c3c(-c4ccccc4)cc(C(F)(F)F)c(C#N)c3nn21 (stereo not given)
value.units: µg/mL
MIC: 150
